Would you mind telling me the reported melting point of each entry?

Some solved entries appear below for comparison.
MOLECULE | PARAMETER | RECORDED VALUE
O=C(O)c1cc2cc3c(cc2c2cc(OCc4ccccc4)ccc12)OCO3 | melting point | 263 to 265 °C
NS(=O)(=O)c1ccc(-n2nc(C(F)(F)F)cc2-c2ccc(-c3ccco3)cc2)c(Cl)c1 | melting point | 190 °C

Report melting point for every entry below.
1. NS(=O)(=O)c1ccc(-c2ccc(Cl)n2-c2ccc(Cl)cc2Cl)cc1
2. CC(C)(C)c1ccc(S(=O)(=O)n2c(CCCC(=O)O)cc3nc(Cl)ccc32)cc1
3. O=C1CCCC(=O)C1Cc1ccccc1CCCCl
4. CC(C)COc1c(-c2ccc(S(C)(=O)=O)cc2)cnn(-c2ccc(F)c(F)c2)c1=O
5. N#Cc1cn(-c2c(Cl)cc(C(F)(F)F)cc2Cl)cc1I
6. COc1cc(C(=O)NS(=O)(=O)c2ccccc2)ccc1Cc1nn(C)c2ccc(NC(=O)OC3CCCC3)cc12

Result:
1: 186 to 187 °C; 2: 168 °C; 3: 143 to 145 °C; 4: 116 to 117 °C; 5: 118 to 120 °C; 6: 145 °C

FYI, the data here is from a melting point compilation (Tetko et al.; mined from patent text by program, amines drawn as free bases though some values may be those of a salt).
